- measurement target: T1, human CD8 alpha (CD8A) on primary human CD8+ T cells (human, UniProt P01732 22-235)
- T1 construct: whole, on cells; also called hCD8A
- T1 sequence (P01732 22-235): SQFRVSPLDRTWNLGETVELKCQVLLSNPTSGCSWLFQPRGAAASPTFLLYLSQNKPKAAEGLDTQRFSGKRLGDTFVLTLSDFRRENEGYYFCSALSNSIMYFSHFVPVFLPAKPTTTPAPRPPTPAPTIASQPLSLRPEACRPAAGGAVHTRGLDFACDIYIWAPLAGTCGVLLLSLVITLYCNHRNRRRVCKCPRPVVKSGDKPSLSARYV
- assay info: flow cytometry, human CD8+ T cells
// reported Human T-cell Binding 2 uM (MFI) per item
measured parameter: Human T-cell Binding 2 uM (MFI)

binder	reading
P283ER9P1365_G1 (designed binder, FN3 domain) LPAPKNLVVSRVTEDSARLSWTAPDAAFDSFYIPYRESEFRGEAIALSVPGSERSYDLTGLKPGTKYRVIIIGVKGGEFSQPLGAIFTT	1280
P283DR9P1364_A7 (designed binder, FN3 domain) LPAPKNLVVSRVTEDSARLSWTAPDAAFDSFRIAYPEWPVRGDAIVLTVPGSERSYDLTGLKPGTEYWVIIQGVKGGTDSFPLSAIFTT	8980
P283FR9P1366_H11 (designed binder, FN3 domain) LPAPKNLVVSRVTEDSARLSWTAPDAAFDSFQIQYLETAPDGEAIVLTVPGSERSYDLTGLKPGTEYYVWIPGVKGGAFSPLSAIFTT	18900
